Give Kb for every item shown.
target: human EP4 prostanoid receptors (Homo sapiens, UniProt P35408); construct: expressed in transfected cells; host or cells: HEK-293; assay: Antagonist activity at EP4 prostanoid receptors (PGE2-stimulated cAMP in HEK-293 clones); type: cell-based; settings: HEK-293 stably transfected with human EP4; 30 min pre-incubation before PGE2; Gaddum-Schild, slope of unity; read-out: pA2 EP4 (converted)
Sequence (P35408 whole entry): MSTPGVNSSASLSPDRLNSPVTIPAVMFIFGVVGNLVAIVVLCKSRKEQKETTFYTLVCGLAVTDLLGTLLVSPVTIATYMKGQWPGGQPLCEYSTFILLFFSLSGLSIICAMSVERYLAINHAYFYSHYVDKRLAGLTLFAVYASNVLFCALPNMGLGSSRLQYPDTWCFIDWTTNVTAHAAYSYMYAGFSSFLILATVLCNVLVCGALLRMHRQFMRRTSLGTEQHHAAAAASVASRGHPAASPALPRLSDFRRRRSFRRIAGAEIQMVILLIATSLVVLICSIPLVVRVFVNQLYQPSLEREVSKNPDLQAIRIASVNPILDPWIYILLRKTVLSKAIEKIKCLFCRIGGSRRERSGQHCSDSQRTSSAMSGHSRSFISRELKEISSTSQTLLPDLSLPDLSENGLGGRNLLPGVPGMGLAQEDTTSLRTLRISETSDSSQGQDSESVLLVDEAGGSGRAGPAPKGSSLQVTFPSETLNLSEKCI

Which Kb value belongs to O=C(O)Cc1cccc(NC(=O)c2cccc(-c3cc(Cl)cc(Cl)c3)n2)c1 ?
< 1000 nM

So what's the measured Kb for this one? O=C(O)/C=C/c1cccc(NC(=O)c2ccc(-c3ccccc3)o2)c1
< 1000 nM

Query: Kb; subject: O=C(O)COc1cccc(NC(=O)c2cccc(-c3cccc(Cl)c3)n2)c1
< 1000 nM

Give its Kb value. Item: O=C(O)c1cc2cc(NC(=O)c3ccc(-c4cccc(Cl)c4)o3)ccc2[nH]1
< 1000 nM

Which Kb value is on record for O=C(O)CCc1cccc(NC(=O)c2ccc(-c3cc(Cl)cc(Cl)c3)o2)c1 ?
< 1000 nM

Value lookup for Kb; key = O=C(O)/C=C/c1cccc(NC(=O)c2cc(-c3cc(Cl)cc(Cl)c3)ccc2F)c1
< 1000 nM

Recorded Kb of O=C(O)COc1cccc(NC(=O)c2cccc(-c3cc(Cl)cc(Cl)c3)n2)c1 , please.
< 100 nM

Would you mind telling me what Kb value was observed for O=C(O)c1ccc(CNC(=O)c2ccc(-c3ccccc3)o2)cc1 ?
< 10000 nM
